Values compiled from patent US20250289893A1.

So I've got a bunch of binders here, and I need their Fluorescence Intensity Geomean (normalized to background) values.
Biological target: T1, human CD1b expressed on HEK-293 cells (human, UniProt P29016 18-333; P61769 21-119)
T1 construct: also called HEK - CD1b
Assay: flow cytometry, HEK-293 cells, 100 µg/ml antibody
Write the numeric value and append its unit.

[ask] Reported Fluorescence Intensity Geomean (normalized to background) for 77A (VR11851) (antibody, V domains shown, also called OX77a; antibody 77a) VH: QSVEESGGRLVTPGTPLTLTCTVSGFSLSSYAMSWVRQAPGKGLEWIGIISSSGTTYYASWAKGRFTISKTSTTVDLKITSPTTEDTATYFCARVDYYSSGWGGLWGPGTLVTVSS VL: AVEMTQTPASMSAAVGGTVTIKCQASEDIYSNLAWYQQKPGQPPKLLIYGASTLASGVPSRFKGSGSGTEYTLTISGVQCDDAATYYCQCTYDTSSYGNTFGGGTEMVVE : what is it?
[reply] 1 fold over background

[ask] Reported Fluorescence Intensity Geomean (normalized to background) for 116 (VR12117) (antibody, V domains shown, also called OX116) VH: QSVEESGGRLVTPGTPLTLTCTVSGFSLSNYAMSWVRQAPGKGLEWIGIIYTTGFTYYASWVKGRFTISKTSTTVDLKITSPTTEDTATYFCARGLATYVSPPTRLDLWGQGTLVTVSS VL: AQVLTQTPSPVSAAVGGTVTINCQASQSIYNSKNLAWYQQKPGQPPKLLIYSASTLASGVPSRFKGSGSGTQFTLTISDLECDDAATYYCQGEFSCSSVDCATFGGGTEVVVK : what is it?
[reply] 1.1 fold over background

[ask] Reported Fluorescence Intensity Geomean (normalized to background) for 110 (VR12112) (antibody, V domains shown, also called OX110; antibody 110) VH: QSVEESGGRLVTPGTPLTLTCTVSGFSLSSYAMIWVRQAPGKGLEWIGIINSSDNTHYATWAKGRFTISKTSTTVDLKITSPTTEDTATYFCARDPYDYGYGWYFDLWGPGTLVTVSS VL: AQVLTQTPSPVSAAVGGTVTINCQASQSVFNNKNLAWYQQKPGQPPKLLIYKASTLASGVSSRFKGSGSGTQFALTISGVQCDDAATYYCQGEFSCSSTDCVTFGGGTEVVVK : what is it?
[reply] 1.1 fold over background

[ask] Reported Fluorescence Intensity Geomean (normalized to background) for 111 (VR12113) (antibody, V domains shown, also called OX111) VH: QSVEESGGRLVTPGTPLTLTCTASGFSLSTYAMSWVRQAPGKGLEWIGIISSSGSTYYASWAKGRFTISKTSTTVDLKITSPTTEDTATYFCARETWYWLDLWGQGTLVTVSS VL: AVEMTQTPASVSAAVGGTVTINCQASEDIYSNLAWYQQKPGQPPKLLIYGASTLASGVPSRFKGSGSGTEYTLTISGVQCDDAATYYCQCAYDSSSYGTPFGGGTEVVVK : what is it?
[reply] 1.1 fold over background
